Each recorded value in this set is attributed to patent US20080200475A1.

# assayed_target: Human P2Y12 (Homo sapiens)
# Construct: expressed in transfected cells; host or cells: HEK cells (membrane preparation)
# method_notes: [^33P]-2MeS-ADP Binding to Recombinant Human P2Y12 Membranes (Assay 3)
# test_parameters: membranes of HEK cells transfected with P2Y12; competition with ^33P 2MeS-ADP; multiple lines = multiple runs
recorded_endpoint: Ki (µM)
Unit µM implied. Number only.

Some entries whose results are on file:
• CCc1cc2c(N3CCN(C(=O)c4ccc(-c5ccccc5)cc4)CC3)nc(NC(=O)c3ccncc3)nc2s1 = 0.328
• CCc1cc2c(N3CCN(C(=O)c4ccc(-c5ccccc5)cc4)CC3)nc(NC(=O)NCC(=O)O)nc2s1 = 0.002

Query block: Retrieve Ki measured for CCOC(=O)CNC(=O)Nc1nc(N2CCN(C(=O)c3ccc(-c4ccccc4)cc3)CC2)c2cc(CC)sc2n1 and print it.
Result block: 0.038

Query block: Report Ki for CCc1cc2c(N3CCN(C(=O)c4ccc(-c5ccccc5)cc4)CC3)nc(NC(=O)[C@H](COC(C)(C)C)NC(=O)OCc3ccccc3)nc2s1
Result block: 1.31

Query block: Hello, please tell me recorded Ki for this one: CCOC(=O)CCNC(=O)Nc1nc(N2CCN(C(=O)c3ccc(-c4ccccc4)cc3)CC2)c2cc(CC)sc2n1
Result block: 0.09

Query block: Look up and state reported Ki for CCc1cc2c(N3CCN(C(=O)c4ccc(-c5ccccc5)cc4)CC3)nc(NC(=O)C(C)C)nc2s1
Result block: 0.089

* * *

Let's look at some compounds and their measured Ki.
# assayed_target: Human P2Y12 (Homo sapiens, UniProt Q9H244)
# Construct: expressed in transfected cells; host or cells: HEK cells (membrane preparation)
# Sequence (Q9H244 whole entry): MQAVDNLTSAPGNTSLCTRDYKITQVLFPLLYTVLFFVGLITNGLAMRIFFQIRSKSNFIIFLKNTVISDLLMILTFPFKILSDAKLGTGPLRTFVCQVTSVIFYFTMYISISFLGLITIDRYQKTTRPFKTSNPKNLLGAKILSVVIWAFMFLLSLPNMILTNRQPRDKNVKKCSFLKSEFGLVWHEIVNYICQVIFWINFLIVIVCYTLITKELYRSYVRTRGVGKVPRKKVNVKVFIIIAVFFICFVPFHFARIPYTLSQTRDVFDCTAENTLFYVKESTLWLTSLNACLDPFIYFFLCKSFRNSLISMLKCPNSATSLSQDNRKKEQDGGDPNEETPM
# method_notes: [^33P]-2MeS-ADP Binding to Recombinant Human P2Y12 Membranes (Assay 3)
# test_parameters: membranes of HEK cells transfected with P2Y12; competition with ^33P 2MeS-ADP; multiple lines = multiple runs
Numeric answer only, unit µM assumed.

Example entries begin here.
• CCc1cc2c(N3CCN(C(=O)c4ccc(-c5ccccc5)cc4)CC3)nc(NC(C)=O)nc2s1 = 0.093
• CCc1cc2c(N3CCN(C(=O)c4ccc(-c5ccccc5)cc4)CC3)nc(NC(=O)[C@H]3CCCN3)nc2s1 = 0.227
• CCc1cc2c(N3CCN(C(=O)c4ccc(-c5ccccc5)cc4)CC3)nc(NC(=O)c3cccnc3)nc2s1 = 0.043
• C=C(C)C(=O)OCCNC(=O)Nc1nc(N2CCN(C(=O)c3ccc(-c4ccccc4)cc3)CC2)c2cc(CC)sc2n1 = 0.14
• CCc1cc2c(N3CCN(C(=O)c4ccc(-c5ccccc5)cc4)CC3)nc(NC(=O)CO)nc2s1 = 0.024

Query block: # return recorded Ki for entry CCc1cc2c(N3CCN(C(=O)c4ccc(-c5ccccc5)cc4)CC3)nc(NC(=O)CCNC(=O)OCc3ccccc3)nc2s1
Result block: 0.021

Query block: Complete the entry with Ki for CCc1cc2c(N3CCN(C(=O)c4ccc(-c5ccccc5)cc4)CC3)nc(NC(=O)c3ccccn3)nc2s1
Result block: 0.021

Query block: Quick one: give measured Ki for CCc1cc2c(N3CCN(C(=O)c4ccc(-c5ccccc5)cc4)CC3)nc(NC(=O)COC)nc2s1
Result block: 0.036

Query block: # return recorded Ki for input CCc1cc2c(N3CCN(C(=O)c4ccc(-c5ccccc5)cc4)CC3)nc(NC(=O)[C@@H]3CCCN3)nc2s1
Result block: 0.087

Query block: Fill in Ki for record CCc1cc2c(N3CCN(C(=O)c4ccc(-c5ccccc5)cc4)CC3)nc(NC(=O)NCCCO)nc2s1
Result block: 0.047

Query block: For the compound CCc1cc2c(N3CCN(C(=O)c4ccc(-c5ccccc5)cc4)CC3)nc(NC(=O)CCO)nc2s1 , give its measured Ki value.
Result block: 0.037

* * *

Listed next: entries and their corresponding inhibition at 10 µM.
# assayed_target: Human P2Y12 (Homo sapiens, UniProt Q9H244)
# Construct: expressed in transfected cells; host or cells: HEK cells (membrane preparation)
# method_notes: [^33P]-2MeS-ADP Binding to Recombinant Human P2Y12 Membranes (Assay 3)
# test_parameters: highest concentration tested 10 μM
Number only, in %; omit the unit.

Example cases with answers are listed next.
* CCc1cc2c(N3CCN(C(=O)c4ccc(-c5ccccc5)cc4)CC3)nc(NC(=O)c3ccncc3)nc2s1 [Example 34] | 74.8
* CCc1cc2c(N3CCN(C(=O)c4ccc(-c5ccccc5)cc4)CC3)nc(NC(=O)CCNC(=O)OCc3ccccc3)nc2s1 [Example 28] | 92.7
* CCc1cc2c(N3CCN(C(=O)c4ccc(-c5ccccc5)cc4)CC3)nc(NC(=O)[C@@H]3CCCN3)nc2s1 [Example 39] | 81
* CCc1cc2c(N3CCN(C(=O)c4ccc(-c5ccccc5)cc4)CC3)nc(NC(=O)CCO)nc2s1 [Example 36] | 94
* CCc1cc2c(N3CCN(C(=O)c4ccc(-c5ccccc5)cc4)CC3)nc(NC(=O)[C@H]3CCCN3)nc2s1 [Example 40] | 75.6
* CCOC(=O)CNC(=O)Nc1nc(N2CCN(C(=O)c3ccc(-c4ccccc4)cc3)CC2)c2cc(CC)sc2n1 [Example 15] | 94.5
* CCc1cc2c(N3CCN(C(=O)c4ccc(-c5ccccc5)cc4)CC3)nc(NC(=O)NCCC(=O)O)nc2s1 [Example 19] | 88
* CCc1cc2c(N3CCN(C(=O)c4ccc(-c5ccccc5)cc4)CC3)nc(NC(=O)c3ccccn3)nc2s1 [Example 33] | 87.9
* CCc1cc2c(N3CCN(C(=O)CC(F)(F)F)CC3)nc(NC(=O)NCCC(=O)O)nc2s1 [Example 49] | 88.9
* C=C(C)C(=O)OCCNC(=O)Nc1nc(N2CCN(C(=O)c3ccc(-c4ccccc4)cc3)CC2)c2cc(CC)sc2n1 [Example 16] | 80.8

Query block: State recorded inhibition at 10 µM with Human P2Y12 (Homo sapiens, UniProt Q9H244), entry CCc1cc2c(N3CCN(C(=O)c4ccc(-c5ccccc5)cc4)CC3)nc(NC(=O)COC)nc2s1 [Example 23] , no comment.
Result block: 93.2

Query block: Under Human P2Y12 (Homo sapiens, UniProt Q9H244): report inhibition at 10 µM of CCc1cc2c(N3CCN(C(=O)c4ccc(-c5ccccc5)cc4)CC3)nc(NC(=O)NCCCO)nc2s1 [Example 20] .
Result block: 89

Query block: GET inhibition at 10 µM | system: Human P2Y12 (Homo sapiens, UniProt Q9H244) | item: CCc1cc2c(N3CCN(C(=O)c4ccc(-c5ccccc5)cc4)CC3)nc(NC(C)=O)nc2s1 [Example 25]
Result block: 91

Query block: Enter recorded inhibition at 10 µM with Human P2Y12 (Homo sapiens, UniProt Q9H244) for CCc1cc2c(N3CCN(C(=O)c4ccc(-c5ccccc5)cc4)CC3)nc(NC(=O)[C@H](COC(C)(C)C)NC(=O)OCc3ccccc3)nc2s1 [Example 35] here.
Result block: 53.9

Query block: Please report the measured inhibition at 10 µM for CCOC(=O)CCNC(=O)Nc1nc(N2CCN(C(=O)c3ccc(-c4ccccc4)cc3)CC2)c2cc(CC)sc2n1 [Example 17] tested on Human P2Y12 (Homo sapiens, UniProt Q9H244).
Result block: 89.9

* * *

# assayed_target: Human P2Y12 (Homo sapiens, UniProt Q9H244)
# Construct: expressed in transfected cells; host or cells: HEK cells (membrane preparation)
# method_notes: [^33P]-2MeS-ADP Binding to Recombinant Human P2Y12 Membranes (Assay 3)
# test_parameters: membranes of HEK cells transfected with P2Y12; competition with ^33P 2MeS-ADP; multiple lines = multiple runs
recorded_endpoint: IC50 (µM)
Could you give me the number in µM? Just the number is fine.

Some solved entries appear below for comparison.
• CCc1cc2c(N3CCN(C(=O)c4ccc(-c5ccccc5)cc4)CC3)nc(NC(=O)c3cccnc3)nc2s1 = 0.078
• CCc1cc2c(N3CCN(C(=O)c4ccc(-c5ccccc5)cc4)CC3)nc(NC(=O)CCNC(=O)OCc3ccccc3)nc2s1 = 0.0381
• CCc1cc2c(N3CCN(C(=O)c4ccc(-c5ccccc5)cc4)CC3)nc(NC(=O)COC)nc2s1 = 0.0624
• CCc1cc2c(N3CCN(C(=O)c4ccc(-c5ccccc5)cc4)CC3)nc(NC(=O)NCCC(=O)O)nc2s1 = 0.006
• CCc1cc2c(N3CCN(C(=O)c4ccc(-c5ccccc5)cc4)CC3)nc(NC(=O)[C@@H]3CCCN3)nc2s1 = 0.179

Query block: Consider the molecule CCc1cc2c(N3CCN(C(=O)c4ccc(-c5ccccc5)cc4)CC3)nc(NC(=O)[C@H]3CCCN3)nc2s1 . State its measured IC50.
Result block: 0.403

Query block: Give recorded IC50. CCOC(=O)CCNC(=O)Nc1nc(N2CCN(C(=O)c3ccc(-c4ccccc4)cc3)CC2)c2cc(CC)sc2n1
Result block: 0.157

Query block: Please give the documented IC50 of CCOC(=O)CNC(=O)Nc1nc(N2CCN(C(=O)c3ccc(-c4ccccc4)cc3)CC2)c2cc(CC)sc2n1
Result block: 0.066

Query block: Could you please provide reported IC50 for CCc1cc2c(N3CCN(C(=O)c4ccc(-c5ccccc5)cc4)CC3)nc(NC(=O)c3ccccn3)nc2s1 ? Thanks!
Result block: 0.0389

Query block: # return recorded IC50 for input CCc1cc2c(N3CCN(C(=O)c4ccc(-c5ccccc5)cc4)CC3)nc(NC(=O)C(C)C)nc2s1
Result block: 0.163

Query block: Write down IC50 measured for item CCc1cc2c(N3CCN(C(=O)c4ccc(-c5ccccc5)cc4)CC3)nc(NC(=O)NCCCO)nc2s1
Result block: 0.072

Query block: Identify the reported IC50 for the following entry. C=C(C)C(=O)OCCNC(=O)Nc1nc(N2CCN(C(=O)c3ccc(-c4ccccc4)cc3)CC2)c2cc(CC)sc2n1
Result block: 0.244

Query block: Supply recorded IC50 for CCc1cc2c(N3CCN(C(=O)c4ccc(-c5ccccc5)cc4)CC3)nc(NC(=O)CO)nc2s1 here.
Result block: 0.0493

Query block: Fill in IC50 for record CCc1cc2c(N3CCN(C(=O)c4ccc(-c5ccccc5)cc4)CC3)nc(NC(=O)c3ccncc3)nc2s1
Result block: 0.582

Query block: Indicate its recorded IC50; the molecule in question is CCc1cc2c(N3CCN(C(=O)c4ccc(-c5ccccc5)cc4)CC3)nc(NC(=O)COCc3ccccc3)nc2s1
Result block: 0.204
